Target: T1, human VEGF (hVEGF) (human, UniProt P15692 181-395)
T1 construct: also called VEGF-A
T1 sequence: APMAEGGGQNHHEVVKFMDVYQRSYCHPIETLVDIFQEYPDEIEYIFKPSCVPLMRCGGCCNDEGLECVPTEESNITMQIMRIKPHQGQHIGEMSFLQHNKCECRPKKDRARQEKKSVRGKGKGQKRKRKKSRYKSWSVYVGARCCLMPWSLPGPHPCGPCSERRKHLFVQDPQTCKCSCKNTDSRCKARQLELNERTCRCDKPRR
Assay: SPR single-cycle
Measured Endpoint: Fold difference (relative to G6.31) (fold)
Write down the numeric answer in fold and omit the unit.

// worked examples, Fold difference (relative to G6.31) included
Binder	Fold difference (relative to G6.31) (fold)
G6.31 HC-Y58R (Fab, name in Kabat numbering, V domains shown, Fab) VH: EVQLVESGGGLVQPGGSLRLSCAASGFTISDYWIHWVRQAPGKGLEWVAGITPAGGYTRYADSVKGRFTISADTSKNTAYLQMNSLRAEDTAVYYCARFVFFLPYAMDYWGQGTLVTVSS VL: DIQMTQSPSSLSASVGDRVTITCRASQDVSTAVAWYQQKPGKAPKLLIYSASFLYSGVPSRFSGSGSGTDFTLTISSLQPEDFATYYCQQGYGNPFTFGQGTKVEIK	9.1
G6.31 HC-Y58Q (Fab, name in Kabat numbering, V domains shown, Fab) VH: EVQLVESGGGLVQPGGSLRLSCAASGFTISDYWIHWVRQAPGKGLEWVAGITPAGGYTQYADSVKGRFTISADTSKNTAYLQMNSLRAEDTAVYYCARFVFFLPYAMDYWGQGTLVTVSS VL: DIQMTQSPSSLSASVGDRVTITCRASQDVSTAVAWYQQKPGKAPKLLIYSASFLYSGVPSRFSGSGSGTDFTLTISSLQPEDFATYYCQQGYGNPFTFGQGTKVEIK	1.5
G6.31 LC-F83A (Fab, V domains shown, Fab) VH: EVQLVESGGGLVQPGGSLRLSCAASGFTISDYWIHWVRQAPGKGLEWVAGITPAGGYTYYADSVKGRFTISADTSKNTAYLQMNSLRAEDTAVYYCARFVFFLPYAMDYWGQGTLVTVSS VL: DIQMTQSPSSLSASVGDRVTITCRASQDVSTAVAWYQQKPGKAPKLLIYSASFLYSGVPSRFSGSGSGTDFTLTISSLQPEDAATYYCQQGYGNPFTFGQGTKVEIK	3.1
G6.31 LC-N94Q (Fab, V domains shown, Fab) VH: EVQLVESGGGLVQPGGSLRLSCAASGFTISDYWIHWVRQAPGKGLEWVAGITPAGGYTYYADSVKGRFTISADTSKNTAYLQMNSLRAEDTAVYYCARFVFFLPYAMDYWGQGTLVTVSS VL: DIQMTQSPSSLSASVGDRVTITCRASQDVSTAVAWYQQKPGKAPKLLIYSASFLYSGVPSRFSGSGSGTDFTLTISSLQPEDFATYYCQQGYGQPFTFGQGTKVEIK	0.3

Shifting focus to the binder that follows.
Note to self: Fold difference (relative to G6.31) recorded for G6.31 LC-Q37A (Fab, V domains shown, Fab) VH: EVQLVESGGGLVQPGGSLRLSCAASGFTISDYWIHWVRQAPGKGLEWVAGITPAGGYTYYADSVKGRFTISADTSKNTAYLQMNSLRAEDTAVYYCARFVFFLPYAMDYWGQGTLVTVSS VL: DIQMTQSPSSLSASVGDRVTITCRASQDVSTAVAWYAQKPGKAPKLLIYSASFLYSGVPSRFSGSGSGTDFTLTISSLQPEDFATYYCQQGYGNPFTFGQGTKVEIK was 1.8
